tested on: ACHN renal; experiment: NCI tumour cell line growth inhibition, 48 h

{"compound": "COC1C2C=CC(C2)[C@H]1[N+](=O)[O-] (stereo partly drawn)", "assay.target": "ACHN renal", "TGI": "> 100 µM"}
{"compound": "CCOC(=O)c1s/c(=N\\Nc2nc3ccccc3cc2C2OCCO2)n(Cc2ccccc2)c1C", "assay.target": "ACHN renal", "TGI": "> 100 µM"}
{"compound": "CN(C)c1ccc(/C=C(\\NC(=O)c2ccccc2)c2nn(C)c(=O)o2)cc1", "assay.target": "ACHN renal", "TGI": "> 100 µM"}

###

tested on: SK-MEL-5 melanoma; experiment: NCI tumour cell line growth inhibition, 48 h
reported.property: TGI

{"compound": "COC(=O)[C@@H]1CCCCC[C@H]2C(CO)=C(C)C(=O)C12 (stereo not given in full)", "assay.target": "SK-MEL-5 melanoma", "reported.property": "TGI", "recorded.result": "> 100 µM"}
{"compound": "O=C(CCc1cc(O)cc(O)c1)NCCCNC(=O)CCc1cc(O)cc(O)c1", "assay.target": "SK-MEL-5 melanoma", "reported.property": "TGI", "recorded.result": "> 100 µM"}
{"compound": "CCC(CO)Nc1nc(NCc2ccccc2)c2ncn(C(C)C)c2n1 (stereo not given)", "assay.target": "SK-MEL-5 melanoma", "reported.property": "TGI", "recorded.result": "> 51.8 µM"}
{"compound": "Cc1[nH]nc(C(=O)n2nc(N)c3ccccc32)c1[N+](=O)[O-]", "assay.target": "SK-MEL-5 melanoma", "reported.property": "TGI", "recorded.result": "> 100 µM"}
{"compound": "COc1ccccc1CN=C1Nc2ccncc2S(=O)(=O)N1c1ccccc1", "assay.target": "SK-MEL-5 melanoma", "reported.property": "TGI", "recorded.result": "> 100 µM"}
